target: E2F4 overexpressed in stable transfected 3T3 cells (nuclear extract) (UniProt Q16254 2-413, limits assumed); experiment: band shift, extract of 3T3 cells overexpressing E2F4; inhibition of DNA binding
Sequence (Q16254 2-413 limits assumed): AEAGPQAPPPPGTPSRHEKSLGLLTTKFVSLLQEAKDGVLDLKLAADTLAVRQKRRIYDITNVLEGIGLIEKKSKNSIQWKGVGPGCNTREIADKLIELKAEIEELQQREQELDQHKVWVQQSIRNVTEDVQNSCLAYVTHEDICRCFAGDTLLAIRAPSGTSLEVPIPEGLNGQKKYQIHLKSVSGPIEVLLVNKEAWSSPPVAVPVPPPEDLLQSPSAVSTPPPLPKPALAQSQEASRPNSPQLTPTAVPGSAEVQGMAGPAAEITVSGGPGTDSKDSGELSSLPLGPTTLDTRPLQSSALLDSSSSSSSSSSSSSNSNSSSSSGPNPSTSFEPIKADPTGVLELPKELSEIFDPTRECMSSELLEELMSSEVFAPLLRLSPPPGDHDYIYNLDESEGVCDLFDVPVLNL
Ends that are not written are not given here.

BINDER | IC50
WVRWHF (also: tetravalent MAP core: 4 copies joined by C-terminus to Lys2-Lys-X core, Branched tetravalent peptide on a lysine MAP core) | ~30 µM
GSRILTFRSGSWYAS (also: tetravalent MAP core: 4 copies joined by C-terminus to Lys2-Lys-X core, Branched tetravalent peptide on a lysine MAP core) [MAP4-SEQ ID NO:5] | ~30 µM
